B1: library; numbered along this chain (parent)
chain: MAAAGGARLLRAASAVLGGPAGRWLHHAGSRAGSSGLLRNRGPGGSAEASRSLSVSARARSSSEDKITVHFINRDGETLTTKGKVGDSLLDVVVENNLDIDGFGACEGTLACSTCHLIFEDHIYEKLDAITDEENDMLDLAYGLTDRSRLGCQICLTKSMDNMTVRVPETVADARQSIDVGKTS

# Variants of: B1
# test-method-notes: scaled log2 fold change in cell abundance, elesclomol vs control (0 = silent mean, 1 = nonsense mean) (scaled log2 ratio); higher = higher viability under elesclomol (loss of FDX1 cuproptosis function);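 also: variant abundance is its share of total variant reads in each endpoint sample, from next-generation sequencing of the integrated ORF PCR-amplified out of genomic DNA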
# experimental-conditions: with ABC1 FDX1 KO; elesclomol 5 nM; glucose 10 mM; 14 days
Use scaled log2 fold change to assign classes; range list: bottom end (below -0.04), midrange (-0.04 to below 0.2), top end (0.2 or more)

Reference set, count: 3
S159D    bottom end
S63I    bottom end
G18I    midrange

Query string: The entry to classify is K182H ; which class holds it?
Result string: bottom end

Query string: What do you have for D121E ?
Result string: top end
